# assay_comment: NCI Yeast Anticancer Drug Screen. Data for the rad18 strain (AID 177)
# run_conditions: S. cerevisiae rad18 mutant growth inhibition; at 11.0 µM
This is part of a sample that, as a whole, favours compounds with a hit. Of some 79,000 tested, about 15% had one in any assay. Activity calls are given as the source filed them. Rule as the data show it: active = growth inhibition above about 70%; inactive = the rest.
Outcomes: active, inactive

- smi: "CCCCCCCCCCCCCCCCCN"
  discrete_label: "inactive"
- smi: "Nc1cccc2cc(Cl)cnc12"
  discrete_label: "inactive"
- smi: "Cc1cc(N(CCOS(C)(=O)=O)CCOS(C)(=O)=O)ccc1C=O"
  discrete_label: "active"
- smi: "CN(C)CCNC(=O)c1cccc2nc3c(ccc4ccccc43)nc12"
  discrete_label: "inactive"
- smi: "Nc1c([N+](=O)[O-])cc2c3c(cccc13)CC2"
  discrete_label: "active"
- smi: "Cc1nc2ccc(NCCN(C)C)c3c(=O)c4ccccc4n1c23"
  discrete_label: "inactive"
- smi: "NNc1nnc(-c2ccccc2)nc1Cc1ccccc1"
  discrete_label: "inactive"

====

# assay_comment: NCI Yeast Anticancer Drug Screen. Data for the sgs1 mgt1 strain (AID 161);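 also: 0% = growth of cultures given vehicle only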
# run_conditions: S. cerevisiae sgs1 mgt1 strain, at 50.0 µM, hits give high values
About 79,000 compounds went through this panel and 15% of them were active in at least one assay; those are over-represented in the sample as a whole.

- compound: "c1cc(Nc2ccc3c(c2)OCO3)c2cc(C3CCCCC3)ccc2n1"
  growth inhibition, %: 99.2
- compound: "CC(O)CN1C(=O)c2cccc3cc([N+](=O)[O-])cc(c23)C1=O (centres undefined)"
  growth inhibition, %: 58
- compound: "CN(C)CCNC(=O)c1cccc2nc3c4ccccc4c4ccccc4c3nc12"
  growth inhibition, %: 96.2
- compound: "Cc1cc(NCCCN(C)C)c2ccc3c(ccc4c(NCCCN(C)C)cc(C)nc43)c2n1"
  growth inhibition, %: 18.6
- compound: "O=C1C(Br)=CC(Br)(Br)C=C1Br"
  growth inhibition, %: 93.7
- compound: "Cc1ccccc1C1=C(CC(=O)O)c2ccccc2CC1C (centres undefined)"
  growth inhibition, %: 99.6
- compound: "C[n+]1c(-c2ccc(NC(=O)c3ccc(C(=O)Nc4ccc(-c5cn6ccccc6[n+]5C)cc4)cc3)cc2)cn2ccccc21"
  growth inhibition, %: 64.5
- compound: "CCOC(=O)/C(O)=C(/C=N/C(=S)Nc1c(CC)cccc1CC)C(=O)OCC"
  growth inhibition, %: 51.3
- compound: "Cc1[nH]nc(C(F)(F)F)c1N=NN(C)C"
  growth inhibition, %: 45
- compound: "O=[N+]([O-])C(=C(NCc1ccccc1)NCc1ccccc1)C(Cl)=C(Cl)Cl"
  growth inhibition, %: 66
- compound: "CNc1ccc2[nH]c3ccccc3c2c1"
  growth inhibition, %: 80.9
- compound: "O=C(Cc1ccccc1F)NC1=C(Cl)C(=O)c2ccccc2C1=O"
  growth inhibition, %: 11.4
- compound: "CCC(C)C(=O)OCC(=O)c1ccc(-c2ccccc2)cc1 (centres undefined)"
  growth inhibition, %: -3.05
- compound: "CCOC(=O)c1[nH]c2cccc3c2c1CC(Br)C3=O (centres undefined)"
  growth inhibition, %: 83.3

====

# assay_comment: NCI Yeast Anticancer Drug Screen. Data for the bub3 strain (AID 167)
# run_conditions: S. cerevisiae bub3 mutant strain, at 1.2 µM, hits give high values
Compounds without any hit were thinned out: in the full panel of roughly 79,000, 15% have a hit.
Examples of compounds with documented growth inhibition follow.

- compound: "O=S(=O)(Oc1c(Cl)cc(Cl)cc1Cl)c1ccccc1"
  growth inhibition / %: -1
- compound: "Cc1cc(NC(=S)SCc2ccc(Cl)cc2)ccc1Cl"
  growth inhibition / %: -4
- compound: "COc1ccc(C(=O)NCCN(C)C)c2nc3ccccc3cc12"
  growth inhibition / %: 12
- compound: "O=C1c2ccccc2-c2ccc(NC(=O)C3CCCCC3C(=O)O)cc21 (stereo unspecified)"
  growth inhibition / %: 44
- compound: "Cc1ccccc1C1=C(CC(=O)O)c2ccccc2CC1C (stereo unspecified)"
  growth inhibition / %: 11
- compound: "O=c1[nH]c(=O)n(CCCO)cc1F"
  growth inhibition / %: -14
